- ASSAYED_TARGET: Integrin alpha-IIb/beta-3 (Homo sapiens)
- PROTOCOL: Antagonist activity against integrin alpha2bbeta3 open form in human platelet rich plasma assessed as inhibition of ADP-induced platelet aggregation
Consider the following molecules; for each one, report its IC50.
Unit nM implied. Number only.

Q: Requested read-out IC50, target or system Integrin alpha-IIb/beta-3 (Homo sapiens), entry CCCCS(=O)(=O)N[C@@H](CNC(=O)CCNC(=O)c1ccc2c(c1)CNCC2)C(=O)O
Result: 320

Q: Form field - read-out: IC50; system: Integrin alpha-IIb/beta-3 (Homo sapiens); submitted item: CCCCS(=O)(=O)N[C@H](CNC(=O)CCNC(=O)c1ccc2c(c1)CNCC2)C(=O)O
Result: 670

Q: Query IC50 on Integrin alpha-IIb/beta-3 (Homo sapiens) for O=C(CCNC(=O)c1ccc2c(c1)CNCC2)NC[C@@H](NS(=O)(=O)c1ccccc1)C(=O)O
Result: 25

Q: Request: IC50, test system Integrin alpha-IIb/beta-3 (Homo sapiens), entry O=C(CCNC(=O)c1ccc2c(c1)CNCC2)NC[C@H](NS(=O)(=O)c1ccccc1)C(=O)O
Result: 6.2
